- target-system: coagulation factor Xa (FXa) (UniProt P00742;P00742 P00742:41-179,P00742:235-488)
- Sequence (P00742 41-179, chain 1 of 2): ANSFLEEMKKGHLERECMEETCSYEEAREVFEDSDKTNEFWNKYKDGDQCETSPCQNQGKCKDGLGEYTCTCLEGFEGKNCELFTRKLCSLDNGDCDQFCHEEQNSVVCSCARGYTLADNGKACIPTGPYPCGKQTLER
- Sequence (P00742 235-488, chain 2 of 2): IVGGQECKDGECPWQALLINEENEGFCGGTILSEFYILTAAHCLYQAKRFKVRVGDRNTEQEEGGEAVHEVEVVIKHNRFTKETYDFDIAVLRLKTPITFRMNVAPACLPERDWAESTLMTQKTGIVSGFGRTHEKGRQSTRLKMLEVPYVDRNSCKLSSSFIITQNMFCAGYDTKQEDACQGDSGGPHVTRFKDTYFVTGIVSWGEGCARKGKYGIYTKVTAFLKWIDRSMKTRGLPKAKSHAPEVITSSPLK
Just a reminder that ties go to not fulfilled: only Kd strictly below 40 nM counts as fulfilled.

Consider the following illustrative entries.
binder: E9-3 (ssRNA) RNA: GGGAGAGAGGAAGAGGGAUGGGCCAAAAGCGCAUACACCUGCGUGUUUCCCCCGCCAACAGUCAUAACCCAGAGGUCGAU
label-class: not fulfilled
--
binder: E9-6 (ssRNA) RNA: GGGAGAGAGGAAGAGGGAUGGGCCAGAAGCUAAACACUCAUAACCACGCUGAACCCCCCAACCAUAACCCAGAGGUCGAU
label-class: not fulfilled

Data request: Dear reviewer, please state whether E9-4 (ssRNA) RNA: GGGAGAGAGGAAGAGGGAUGGGAGCCCGAGAAAAUAACGCGUUCCACCAUACUACUAAGCCAUAACCCAGAGGUCGAU has Kd strictly beneath 40 nM.
Data returned: not fulfilled

Data request: Now consider E9-2 (ssRNA) RNA: GGGAGAGAGGAAGAGGGAUGGGAUACCGAGCACGCAAAACACACAAUGCCCAAGCAGGACUCAUAACCCAGAGGUCGAU and answer again.
Data returned: not fulfilled

Data request: Now consider D7-7 (ssRNA) RNA: GGGAGAGAGGAAGAGGGAUGGGAGAAUACGCCUAGCGAGAAGAUACUUGGCCCCCGUGCAACCAUAACCCAGAGGUCGAU and answer again.
Data returned: fulfilled
